Listing: IC50 of selected compounds
- System: HeLa
- RUN_DESCRIPTION: Cytotoxicity against human HeLa cells harboring class 3 beta tubulin mutant assessed as growth inhibition
- Type: functional, cell-based
The number alone won't do; follow it with the unit.

>>> experimental_result("COc1cc2c(c(OC)c1OC)-c1ccc(OC)c(=O)cc1[C@@H](NC(C)=O)CC2")
"9.7 nM"
>>> experimental_result("COc1cc2c(c(OC)c1OC)-c1ccc(NCCO)c(=O)cc1[C@@H](NC(C)=O)CC2")
"164 nM"
>>> experimental_result("CNCCNc1ccc2c(cc1=O)[C@@H](NC(C)=O)CCc1cc(OC)c(OC)c(OC)c1-2")
"554 nM"

Field: next compound
IN: Can you share its IC50? I mean this compound: CC(=O)O[C@H]1C(=O)[C@@]2(C)[C@H]([C@H](OC(=O)c3ccccc3)[C@]3(O)C[C@H](OC(=O)[C@H](O)[C@@H](NC(=O)c4ccccc4)c4ccccc4)C(C)=C1C3(C)C)[C@]1(OC(C)=O)CO[C@@H]1C[C@@H]2O
OUT: 11.2 nM
